meta.source: patent US20050089937A1

Target: T1, human neuropeptide FF receptor (NPFF1) (human, UniProt Q9GZQ6 1-430)
T1 construct: also called human NPFF1; hNPFF1
T1 sequence (Q9GZQ6 whole entry): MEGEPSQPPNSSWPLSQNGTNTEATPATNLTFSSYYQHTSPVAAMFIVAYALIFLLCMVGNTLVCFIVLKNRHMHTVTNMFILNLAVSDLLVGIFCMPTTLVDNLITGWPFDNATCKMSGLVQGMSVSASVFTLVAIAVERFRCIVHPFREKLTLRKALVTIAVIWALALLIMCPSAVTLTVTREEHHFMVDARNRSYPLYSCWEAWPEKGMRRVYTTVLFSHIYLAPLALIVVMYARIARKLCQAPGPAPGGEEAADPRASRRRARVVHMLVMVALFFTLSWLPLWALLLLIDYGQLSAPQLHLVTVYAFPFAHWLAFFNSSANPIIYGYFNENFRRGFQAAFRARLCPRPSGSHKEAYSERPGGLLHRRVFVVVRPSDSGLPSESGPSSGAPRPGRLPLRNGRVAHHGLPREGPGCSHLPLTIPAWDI
Assay: radioligand saturation binding, transiently transfected HEK-293 cells
Non-standard residues stand in square brackets, D forms with d. No end group written: not given here. *: point of attachment. NMeF = CN[C@@H](Cc1ccccc1)C(=O)O; 125I = [125I]*
assayReadout: pKd
# pKd is unitless: minus log10 of the molar concentration; print number only

Which pKd value is on record for [dY](125I)L[NMeF]QPQRF-NH2 [[^125I][D-Tyr^1-(NMe)Phe^3]NPFF] ?
9.34
